- Test system: MOLT-4
- protocol-notes: Antiproliferative activity against human MOLT-4 cells assessed as reduction in cell viability measured after 48 hrs by MTS assay
- Assay type: functional, cell-based
- condition: MOLT-4, 48 h
property-measured: IC50 (nM)

Reference set, count: 5
CN(C)CC[C@H](CSc1ccccc1)Nc1ccc(S(=O)(=O)NC(=O)c2ccc(N3CCN(Cc4ccccc4-c4ccc(Cl)cc4)CC3)cc2)cc1[N+](=O)[O-] [ABT 737]
227
CC1(C)CCC(c2ccc(Cl)cc2)=C(CN2CCN(c3ccc(C(=O)NS(=O)(=O)c4ccc(N[C@H](CCN5CCN(C(=O)COCCOCCNc6cccc7c6C(=O)N([C@@H]6CCC(=O)NC6=O)C7=O)CC5)CSc5ccccc5)c(S(=O)(=O)C(F)(F)F)c4)cc3)CC2)C1
161
Cc1ncsc1-c1ccc([C@H](C)NC(=O)[C@@H]2C[C@@H](O)CN2C(=O)[C@@H](NC(=O)CCCCC(=O)N2CCN(CC[C@H](CSc3ccccc3)Nc3ccc(S(=O)(=O)NC(=O)c4ccc(N5CCN(CC6=C(c7ccc(Cl)cc7)CCC(C)(C)C6)CC5)cc4)cc3S(=O)(=O)C(F)(F)F)CC2)C(C)(C)C)cc1
467
Cc1ncsc1-c1ccc([C@H](C)NC(=O)[C@@H]2C[C@@H](O)CN2C(=O)[C@@H](NC(=O)COCCOCC(=O)N2CCN(CC[C@H](CSc3ccccc3)Nc3ccc(S(=O)(=O)NC(=O)c4ccc(N5CCN(CC6=C(c7ccc(Cl)cc7)CCC(C)(C)C6)CC5)cc4)cc3S(=O)(=O)C(F)(F)F)CC2)C(C)(C)C)cc1
512
Cc1ncsc1-c1ccc([C@H](C)NC(=O)[C@@H]2C[C@@H](O)CN2C(=O)[C@@H](NC(=O)CCCCCN2CCN(CC[C@H](CSc3ccccc3)Nc3ccc(S(=O)(=O)NC(=O)c4ccc(N5CCN(CC6=C(c7ccc(Cl)cc7)CCC(C)(C)C6)CC5)cc4)cc3S(=O)(=O)C(F)(F)F)CC2)C(C)(C)C)cc1
82

(I) CC1(C)CCC(c2ccc(Cl)cc2)=C(CN2CCN(c3ccc(C(=O)NS(=O)(=O)c4ccc(N[C@H](CCN5CCN(C(=O)NCCOCCOCCNc6cccc7c6C(=O)N([C@@H]6CCC(=O)NC6=O)C7=O)CC5)CSc5ccccc5)c(S(=O)(=O)C(F)(F)F)c4)cc3)CC2)C1
(II) CN(CC[C@H](CSc1ccccc1)Nc1ccc(S(=O)(=O)NC(=O)c2ccc(N3CCN(CC4=C(c5ccc(Cl)cc5)CCC(C)(C)C4)CC3)cc2)cc1S(=O)(=O)C(F)(F)F)C(=O)CCCCCCn1cc(COCCOCCOCCNc2cccc3c2C(=O)N([C@@H]2CCC(=O)NC2=O)C3=O)nn1
INPUT: Among I and II , which shows a numerically higher IC50 result? Respond using the label that marks the chosen record.
OUTPUT: II

---

- assay-system: von Hippel-Lindau disease tumor suppressor/Apoptosis regulator Bcl-2 (Homo sapiens) (UniProt P10415+P40337)
- Sequence (P10415 whole entry, looked up): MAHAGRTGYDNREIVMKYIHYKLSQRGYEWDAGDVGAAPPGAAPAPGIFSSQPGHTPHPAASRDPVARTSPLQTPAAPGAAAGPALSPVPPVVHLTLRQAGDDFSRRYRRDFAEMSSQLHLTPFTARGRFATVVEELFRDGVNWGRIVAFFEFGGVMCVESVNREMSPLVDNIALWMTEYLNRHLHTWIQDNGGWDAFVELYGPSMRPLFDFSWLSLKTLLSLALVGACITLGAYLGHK
- Sequence (P40337 whole entry, looked up): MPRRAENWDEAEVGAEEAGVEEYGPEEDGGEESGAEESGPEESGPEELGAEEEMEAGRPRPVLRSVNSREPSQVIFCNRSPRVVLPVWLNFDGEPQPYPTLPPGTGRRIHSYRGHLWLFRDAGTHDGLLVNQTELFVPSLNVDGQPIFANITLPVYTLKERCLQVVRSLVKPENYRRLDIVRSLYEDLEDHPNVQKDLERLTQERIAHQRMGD
- protocol-notes: Protac activity at VHL/BCL2 in human MOLT-4 cells assessed as induction of BCL2 degradation at 100 nM measured after 16 hrs by immunoblotting analysis
- Format: cell-based
Active and inactive are the calls of the source. The calls are words filed in the database; no cut-off is given here.
property-measured: Activity

Cc1ncsc1-c1ccc([C@H](C)NC(=O)[C@@H]2C[C@@H](O)CN2C(=O)[C@@H](NC(=O)COCCCOCC(=O)N2CCN(CC[C@H](CSc3ccccc3)Nc3ccc(S(=O)(=O)NC(=O)c4ccc(N5CCN(CC6=C(c7ccc(Cl)cc7)CCC(C)(C)C6)CC5)cc4)cc3S(=O)(=O)C(F)(F)F)CC2)C(C)(C)C)cc1
inactive
Cc1ncsc1-c1ccc([C@H](C)NC(=O)[C@@H]2C[C@@H](O)CN2C(=O)[C@@H](NC(=O)CCCCCCCCCN(C)CC[C@H](CSc2ccccc2)Nc2ccc(S(=O)(=O)NC(=O)c3ccc(N4CCN(CC5=C(c6ccc(Cl)cc6)CCC(C)(C)C5)CC4)cc3)cc2S(=O)(=O)C(F)(F)F)C(C)(C)C)cc1
inactive
Cc1ncsc1-c1ccc([C@H](C)NC(=O)[C@@H]2C[C@@H](O)CN2C(=O)[C@@H](NC(=O)CCCCC(=O)N2CCN(CC[C@H](CSc3ccccc3)Nc3ccc(S(=O)(=O)NC(=O)c4ccc(N5CCN(CC6=C(c7ccc(Cl)cc7)CCC(C)(C)C6)CC5)cc4)cc3S(=O)(=O)C(F)(F)F)CC2)C(C)(C)C)cc1
inactive

---

- assay-system: Protein cereblon/Bcl-2-like protein 1 (Homo sapiens, UniProt Q07817+Q96SW2)
- Sequence (Q07817 whole entry): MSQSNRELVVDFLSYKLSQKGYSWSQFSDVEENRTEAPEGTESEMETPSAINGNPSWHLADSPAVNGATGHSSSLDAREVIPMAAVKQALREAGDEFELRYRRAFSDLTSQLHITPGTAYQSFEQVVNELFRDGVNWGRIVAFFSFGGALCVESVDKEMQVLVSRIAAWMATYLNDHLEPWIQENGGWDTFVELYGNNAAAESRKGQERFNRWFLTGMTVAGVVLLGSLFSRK
- Sequence (Q96SW2 whole entry): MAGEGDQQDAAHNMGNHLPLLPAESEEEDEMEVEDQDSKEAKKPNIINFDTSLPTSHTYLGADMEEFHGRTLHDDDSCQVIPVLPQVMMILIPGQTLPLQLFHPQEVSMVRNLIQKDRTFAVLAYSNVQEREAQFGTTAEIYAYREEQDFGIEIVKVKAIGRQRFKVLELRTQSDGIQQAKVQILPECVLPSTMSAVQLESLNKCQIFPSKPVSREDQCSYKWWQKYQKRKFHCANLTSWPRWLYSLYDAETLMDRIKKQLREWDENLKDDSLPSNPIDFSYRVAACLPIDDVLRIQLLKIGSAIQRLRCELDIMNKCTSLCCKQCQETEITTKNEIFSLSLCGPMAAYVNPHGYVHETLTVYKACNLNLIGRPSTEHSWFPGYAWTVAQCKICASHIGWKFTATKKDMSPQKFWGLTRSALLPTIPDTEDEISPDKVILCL
- protocol-notes: Protac activity at CRBN/BCL-XL in human MOLT-4 cells assessed as induction of BCL-XL degradation measured after 16 hrs by immunoblotting analysis
- Type: cell-based
property-measured: DC50 (nM)

O=C1CCC(N2C(=O)c3cccc(NCCOCCOCc4cn(CCCC(=O)N5CCN(CC#Cc6ccc(OCCCc7sc(N8CCc9cccc(C(=O)Nc%10nc%11ccccc%11s%10)c9C8)nc7C(=O)O)c(F)c6)CC5)nn4)c3C2=O)C(=O)N1 (stereo not drawn)
50

(P) CN(CCCCCCCn1cc(COCCOCCNc2cccc3c2C(=O)N([C@@H]2CCC(=O)NC2=O)C3=O)nn1)CC[C@H](CSc1ccccc1)Nc1ccc(S(=O)(=O)NC(=O)c2ccc(N3CCN(CC4=C(c5ccc(Cl)cc5)CCC(C)(C)C4)CC3)cc2)cc1S(=O)(=O)C(F)(F)F
(Q) CN(CCOCCOCCOCCNc1cccc2c1C(=O)N([C@@H]1CCC(=O)NC1=O)C2=O)CC[C@H](CSc1ccccc1)Nc1ccc(S(=O)(=O)NC(=O)c2ccc(N3CCN(CC4=C(c5ccc(Cl)cc5)CCC(C)(C)C4)CC3)cc2)cc1S(=O)(=O)C(F)(F)F
INPUT: Among P and Q , which shows a numerically higher DC50 result? Respond using the label that marks the chosen record.
OUTPUT: P
(P: 6.3 nM, Q: 2.5 nM)

---

- assay-system: Protein cereblon/Apoptosis regulator Bcl-2 (Homo sapiens) (UniProt P10415+Q96SW2)
- protocol-notes: Protac activity at CRBN/BCL2 in human MOLT-4 cells assessed as induction of BCL2 degradation at 50 nM measured after 16 hrs by immunoblotting analysis
- Type: cell-based
The source made the active and inactive calls. The calls are words filed in the database; no cut-off is given here.
property-measured: Activity

CC1(C)CCC(c2ccc(Cl)cc2)=C(CN2CCN(c3ccc(C(=O)NS(=O)(=O)c4ccc(N[C@H](CCN5CCN(C(=O)CCCCCCNc6cccc7c6C(=O)N([C@@H]6CCC(=O)NC6=O)C7=O)CC5)CSc5ccccc5)c(S(=O)(=O)C(F)(F)F)c4)cc3)CC2)C1
inactive
CC1(C)CCC(c2ccc(Cl)cc2)=C(CN2CCN(c3ccc(C(=O)NS(=O)(=O)c4ccc(N[C@H](CCN5CCN(CCCCCNc6cccc7c6C(=O)N([C@@H]6CCC(=O)NC6=O)C7=O)CC5)CSc5ccccc5)c(S(=O)(=O)C(F)(F)F)c4)cc3)CC2)C1
inactive

---

- Tested on: MOLT-4
- protocol-notes: Antiproliferative activity against human MOLT-4 cells assessed as reduction in cell viability measured after 48 hrs by MTS assay
- Format: functional, cell-based
- condition: MOLT-4, 48 h
pIC50 values by entry
Keep in mind that pIC50 stands for -log10 of concentration in molar terms.

Reference set, count: 2
Cc1ncsc1-c1ccc([C@H](C)NC(=O)[C@@H]2C[C@@H](O)CN2C(=O)[C@@H](NC(=O)CCCCCCCCCN(C)CC[C@H](CSc2ccccc2)Nc2ccc(S(=O)(=O)NC(=O)c3ccc(N4CCN(CC5=C(c6ccc(Cl)cc6)CCC(C)(C)C5)CC4)cc3)cc2S(=O)(=O)C(F)(F)F)C(C)(C)C)cc1
5.98
Cc1ncsc1-c1ccc([C@H](C)NC(=O)[C@@H]2C[C@@H](O)CN2C(=O)[C@@H](NC(=O)CCOCCOCCN2CCN(CC[C@H](CSc3ccccc3)Nc3ccc(S(=O)(=O)NC(=O)c4ccc(N5CCN(CC6=C(c7ccc(Cl)cc7)CCC(C)(C)C6)CC5)cc4)cc3S(=O)(=O)C(F)(F)F)CC2)C(C)(C)C)cc1
6.04

Please find the next compound below.
INPUT: Give the reported value of pIC50 for this record: CN(CCCCNc1cccc2c1C(=O)N([C@@H]1CCC(=O)NC1=O)C2=O)CC[C@H](CSc1ccccc1)Nc1ccc(S(=O)(=O)NC(=O)c2ccc(N3CCN(CC4=C(c5ccc(Cl)cc5)CCC(C)(C)C4)CC3)cc2)cc1S(=O)(=O)C(F)(F)F
OUTPUT: 7.41

---

- System: MOLT-4
- protocol-notes: Antiproliferative activity against human MOLT-4 cells assessed as reduction in cell viability measured after 48 hrs by MTS assay
- Format: functional, cell-based
- condition: MOLT-4, 48 h
property-measured: IC50 (nM)

(a) CC1(C)CCC(c2ccc(Cl)cc2)=C(CN2CCN(c3ccc(C(=O)NS(=O)(=O)c4ccc(N[C@H](CCN5CCN(C(=O)COCCOCCOCCOCCNc6cccc7c6C(=O)N([C@@H]6CCC(=O)NC6=O)C7=O)CC5)CSc5ccccc5)c(S(=O)(=O)C(F)(F)F)c4)cc3)CC2)C1
(b) CC1(C)CCC(c2ccc(Cl)cc2)=C(CN2CCN(c3ccc(C(=O)NS(=O)(=O)c4ccc(N[C@H](CCN5CCN(C(=O)CCCCNc6cccc7c6C(=O)N([C@@H]6CCC(=O)NC6=O)C7=O)CC5)CSc5ccccc5)c(S(=O)(=O)C(F)(F)F)c4)cc3)CC2)C1
INPUT: Among a and b , which shows a numerically higher IC50 result? Respond using the label that marks the chosen record.
OUTPUT: b
(b: 346 nM, a: 126 nM)
